- Tested on: SF-295 CNS
- protocol: NCI tumour cell line growth inhibition, 48 h

>  <compound>
O=C(NNS(=O)(=O)c1ccccc1)c1cccnc1

>  <TGI>
> 100 µM

$$$$
>  <compound>
CCOC(=O)c1c(N2CCCC2)ncn(C)c1=S

>  <TGI>
> 100 µM

$$$$
>  <compound>
COC1OC(C)C2OC(C)(C)OC2C1OC(C)=O (configuration not stated)

>  <TGI>
> 100 µM

$$$$
>  <compound>
COc1ccc(/C=C\c2cc(OC)c(OC)c(OC)c2)cc1OCC(=O)Nc1ccc2nc(C)sc2c1

>  <TGI>
6.85 µM

$$$$
>  <compound>
O=C(Nc1sccc1S(=O)(=O)c1ccccc1)c1ccccc1

>  <TGI>
> 100 µM

$$$$
>  <compound>
CC(C)(C)C1=CC(=C2C=Cc3ccccc3O2)C=C(C(C)(C)C)C1=O

>  <TGI>
18.9 µM

$$$$
>  <compound>
c1ccc2c(c1)ccn1ccc3c4ccccc4nc-3c21

>  <TGI>
2.03 µM

$$$$
>  <compound>
CCS(=O)(=O)c1ccc(OC)c(Nc2ncc(-c3ccccc3Cl)o2)c1

>  <TGI>
> 25 µM

$$$$
>  <compound>
COc1cccc2c1C(=O)OC2c1cccc2ccccc12 (configuration not stated)

>  <TGI>
> 100 µM

$$$$
>  <compound>
COC(=O)[C@@H]1CC(C(CN)c2cn(C(=O)OC(C)(C)C)c3ccccc23)C(=O)N1C(=O)OC(C)(C)C (some centres not stated)

>  <TGI>
45.2 µM

$$$$
>  <compound>
CC1=C(C)C2(O)C(=C(C)C1=O)/C(=C(/O)c1ccccc1)c1nc3ccccc3n12 (configuration not stated)

>  <TGI>
33.2 µM

$$$$
>  <compound>
CCN(CC)CCn1[nH]c2c3ccc(=O)cc3sc3c(NCCN)ccc1c32

>  <TGI>
8.07 µM

$$$$

---

- System: HOP-18 NSCLC
- protocol: NCI tumour cell line growth inhibition, 48 h
TGI by entry:
readout.name: TGI

>  <compound>
COc1cc2c(cc1C1=NC(C)(C)CO1)OCO2

>  <measured.on>
HOP-18 NSCLC

>  <readout.name>
TGI

>  <reported.result>
> 100 µM

$$$$
>  <compound>
CN(/N=C/c1cccc2cccnc12)c1c([N+](=O)[O-])cc([N+](=O)[O-])cc1[N+](=O)[O-]

>  <measured.on>
HOP-18 NSCLC

>  <readout.name>
TGI

>  <reported.result>
> 100 µM

$$$$
>  <compound>
CCOc1ccc(O)cc1[P+](c1ccccc1)(c1ccccc1)c1ccccc1

>  <measured.on>
HOP-18 NSCLC

>  <readout.name>
TGI

>  <reported.result>
9.61 µM

$$$$
>  <compound>
O=C(CCc1nnc2s/c(=C\c3ccccc3Cl)c(=O)n12)Nc1cc(Cl)ccc1Cl

>  <measured.on>
HOP-18 NSCLC

>  <readout.name>
TGI

>  <reported.result>
> 100 µM

$$$$
>  <compound>
O=C(C/C(CCC(=O)N(Cc1ccccc1)Cc1ccccc1)=N/Nc1ccc([N+](=O)[O-])cc1[N+](=O)[O-])c1ccccc1

>  <measured.on>
HOP-18 NSCLC

>  <readout.name>
TGI

>  <reported.result>
> 100 µM

$$$$
>  <compound>
NCCCCCCNCc1cccc2ccccc12

>  <measured.on>
HOP-18 NSCLC

>  <readout.name>
TGI

>  <reported.result>
> 100 µM

$$$$
>  <compound>
CC(C)(C)OC(=O)c1cccnc1/C=N/O

>  <measured.on>
HOP-18 NSCLC

>  <readout.name>
TGI

>  <reported.result>
> 100 µM

$$$$
>  <compound>
COc1ccc2c(c1)c(=O)c1c(NCCN(C)C)ccc3nnn2c31

>  <measured.on>
HOP-18 NSCLC

>  <readout.name>
TGI

>  <reported.result>
7.35 µM

$$$$
>  <compound>
COc1ccc(C2C3CCCC(C3=O)C(c3ccc(OC)cc3)N2N=O)cc1 (stereo not given)

>  <measured.on>
HOP-18 NSCLC

>  <readout.name>
TGI

>  <reported.result>
31 µM

$$$$
>  <compound>
COc1ccc(C(=O)N/N=C/c2c(C)n(C)n(-c3ccccc3)c2=O)cc1

>  <measured.on>
HOP-18 NSCLC

>  <readout.name>
TGI

>  <reported.result>
> 100 µM

$$$$

---

- Test system: SF-539 CNS
- protocol: NCI tumour cell line growth inhibition, 48 h

>  <compound>
Cc1ccc(C)c(NC(=O)CC2SC(=Nc3ccccc3Cl)NC2=O)c1 (stereo not given)

>  <op>
>

>  <TGI / µM>
100

$$$$
>  <compound>
Nc1ccc(-c2nc3ccccc3s2)cc1C#Cc1ccccc1

>  <op>
=

>  <TGI / µM>
35.4

$$$$
>  <compound>
O=C(Nc1nnc(-c2c(Cl)c(Cl)c(Cl)c(Cl)c2-c2nc3cc(C(=O)c4ccccc4)ccc3[nH]2)o1)c1ccc(Cl)cc1

>  <op>
>

>  <TGI / µM>
100

$$$$
>  <compound>
CN(C)c1ccc(C(c2ccc(Cl)cc2)c2ccc(N(C)C)cc2)cc1

>  <op>
>

>  <TGI / µM>
100

$$$$
>  <compound>
Cc1ccc2[nH]c3[nH]c(=S)[nH]c(=O)c3c2c1

>  <op>
>

>  <TGI / µM>
100

$$$$
>  <compound>
COc1nc2c(c(=O)n1C)N=C(c1ccc(Cl)cc1)CC(c1ccccc1)N2 (stereo not given)

>  <op>
=

>  <TGI / µM>
31.5

$$$$
>  <compound>
COc1ccc(/C=C\c2cc(OC)c(OC)c(OC)c2)cc1OCC(=O)Nc1ccc2nc(C)sc2c1

>  <op>
=

>  <TGI / µM>
14.6

$$$$
>  <compound>
O=C(NNS(=O)(=O)c1ccccc1)c1cccnc1

>  <op>
>

>  <TGI / µM>
100

$$$$
>  <compound>
Nc1ccccc1C#C/C=C\C#Cc1c(F)c(F)c(F)c(F)c1F

>  <op>
=

>  <TGI / µM>
47.1

$$$$
>  <compound>
COc1cccc2c1C(=O)OC2c1cccc2ccccc12 (stereo not given)

>  <op>
>

>  <TGI / µM>
100

$$$$
>  <compound>
C=CCCCCOC1C=CC(O)C(CO)O1 (stereo not given)

>  <op>
>

>  <TGI / µM>
100

$$$$
>  <compound>
COc1ccc2nc3n(c2c1)C(=O)c1ccccc1-3

>  <op>
>

>  <TGI / µM>
100

$$$$
>  <compound>
CN1C(=O)CC2CCC(=O)N2c2cccnc21 (stereo not given)

>  <op>
>

>  <TGI / µM>
100

$$$$
>  <compound>
O=C1c2ccccc2C(=O)c2sc(Nc3ccccc3Cl)nc21

>  <op>
=

>  <TGI / µM>
31.4

$$$$
>  <compound>
COc1ccc(N2C(=O)C3c4[nH]c5ccc(F)cc5c4C4CCC(C(C)(C)C)CC4C3C2=O)cc1 (stereo not given)

>  <op>
>

>  <TGI / µM>
10

$$$$
>  <compound>
COC1C2c3cc4c(cc3CC(C#N)(c3ccccc32)N1C(=O)c1ccccc1)OCO4 (stereo not given)

>  <op>
>

>  <TGI / µM>
100

$$$$
>  <compound>
COc1cc2c(=O)n(CCN(C)C)c3c4cc5c(cc4ccc3c2cc1OC)OCO5

>  <op>
=

>  <TGI / µM>
0.863

$$$$
>  <compound>
COc1ccc2c3c([nH]c2c1)CCN(Cc1ccccc1)C3

>  <op>
=

>  <TGI / µM>
32.7

$$$$
>  <compound>
COC(=O)[C@@H]1CC(C(CN)c2cn(C(=O)OC(C)(C)C)c3ccccc23)C(=O)N1C(=O)OC(C)(C)C (stereo not given in full)

>  <op>
=

>  <TGI / µM>
28.3

$$$$
>  <compound>
Cc1cccc(C)c1Nc1nc(C)c(C(=O)CC(=O)C(=O)Nc2c(C(C)C)cccc2C(C)C)s1

>  <op>
>

>  <TGI / µM>
100

$$$$
>  <compound>
COc1ccc2c3c1OC1C34CCN(C)C(C2)C4=CC(I)C1(OC)OC (stereo not given)

>  <op>
=

>  <TGI / µM>
40.6

$$$$
>  <compound>
Oc1[nH]c2ccccc2c1N=Nc1c(F)c(F)c(F)c(F)c1F

>  <op>
>

>  <TGI / µM>
100

$$$$
>  <compound>
O=[N+]([O-])/C(C(Cl)=C(Cl)Cl)=C(\N1CCCCC1)n1nnc2ccccc21

>  <op>
=

>  <TGI / µM>
33.6

$$$$
>  <compound>
CN1CCN(Cc2ccc3c(NNC(=O)c4ccccc4)nc4cc(F)ccc4n23)CC1

>  <op>
=

>  <TGI / µM>
8.22

$$$$
>  <compound>
CO[C@@H]1C[C@H](OC(N)=O)[C@@H]2C=C[C@@H]3/C=C(C)/C=C/[C@@H](C)[C@H](/C(C)=C/[C@@H](C)NC(C)=O)OC(=O)/C=C/C=C(C)\C=C\[C@]3(C)[C@@H]2C1

>  <op>
=

>  <TGI / µM>
0.0846

$$$$
>  <compound>
C(=Nc1ccc(-c2nc3ccccc3[nH]2)cc1)c1ccco1

>  <op>
>

>  <TGI / µM>
100

$$$$
>  <compound>
NC(=O)c1c(NC=O)ncn1C1OCC(O)C(O)C1O (stereo not given)

>  <op>
>

>  <TGI / µM>
100

$$$$
>  <compound>
COc1c2c(cc3c1C1(O)Cc4ccc5c(c4C[N+]1(C)CC3)OCO5)OCO2 (stereo not given)

>  <op>
>

>  <TGI / µM>
100

$$$$
>  <compound>
CC1=C[C@H]2C[C@H](C)[C@H]3CC[C@H](C)[C@]4(C1)C(=O)C(O)=C(C)C(=O)[C@@]324

>  <op>
>

>  <TGI / µM>
100

$$$$
>  <compound>
C=C1C(=O)O[C@H]2[C@H]1CC/C(COC(=O)NCCc1c[nH]c3ccc(Cl)cc13)=C\CC[C@@]1(C)O[C@@H]21

>  <op>
=

>  <TGI / µM>
3.32

$$$$
>  <compound>
CCOc1ccc(O)cc1[P+](c1ccccc1)(c1ccccc1)c1ccccc1

>  <op>
=

>  <TGI / µM>
17.8

$$$$
>  <compound>
CCOC(=O)/C(=C/c1ccc(N(CCC#N)CCC#N)cc1C)NC(=O)/C=C/c1ccccc1

>  <op>
>

>  <TGI / µM>
100

$$$$
>  <compound>
NNC(=O)c1ccc(OCc2nc3ccccc3[nH]2)cc1

>  <op>
>

>  <TGI / µM>
100

$$$$
>  <compound>
Cn1c(=S)c2[nH]c(SCCN3C(=O)c4ccccc4C3=O)nc2n(C)c1=O

>  <op>
>

>  <TGI / µM>
100

$$$$
>  <compound>
C#CCN(C(=O)C(F)(F)F)c1ccc(C(=O)c2ccc(N(CC#C)C(=O)C(F)(F)F)cc2)cc1

>  <op>
>

>  <TGI / µM>
100

$$$$
>  <compound>
CCn1c2c(c3ccccc31)C(c1ccccc1)CC1C(=O)N(c3ccccc3)C(=O)C21 (stereo not given)

>  <op>
>

>  <TGI / µM>
100

$$$$
>  <compound>
O=S(=O)(Nc1ccc(F)c(Cl)c1)c1ccc(-c2cnc(C3CC3)o2)cc1

>  <op>
=

>  <TGI / µM>
1.8

$$$$
>  <compound>
N#Cc1c(N)nc(NCc2ccccc2)c(C#N)c1-c1ccc(Cl)cc1Cl

>  <op>
>

>  <TGI / µM>
100

$$$$
>  <compound>
ClCc1cccc(CSc2ncnc3c2ncn3Cc2cccc(CCl)c2)c1

>  <op>
=

>  <TGI / µM>
4.31

$$$$
>  <compound>
C[C@]12CCNC(=O)C=C1CC[C@@H]1C2CC[C@@]2(C)C1CC[C@@H]2OC(=O)COc1ccc(N(CCCl)CCCl)cc1 (stereo not given in full)

>  <op>
=

>  <TGI / µM>
9.01

$$$$
